assay-remarks: Half life in Harlan nu/nu mouse at 10 mg/kg, po administered as single dose by LC-MS/MS analysis
Assay type: ADME, organism-based
measurement-conditions: in vivo
half-life overview
reported-metric: half-life (h)

{"columns": ["entry-smiles", "reported-measurement"],
 "data": [
  ["CN1CCN(c2ccc(C(=O)Nc3n[nH]c4ccc(Cc5cc(F)cc(F)c5)cc34)c(NC3CCOCC3)c2)CC1", 2.94],
  ["CN1CCN(c2ccc(C(=O)Nc3n[nH]c4ccc(Cc5cc(F)cc(F)c5)cc34)c(NCCF)c2)CC1", 9.86],
  ["CN1CCC(Oc2ccc(C(=O)Nc3n[nH]c4ccc(Cc5cc(F)cc(F)c5)cc34)c(NC3CCOCC3)c2)CC1", 4.08],
  ["O=C(Nc1n[nH]c2ccc(Cc3cc(F)cc(F)c3)cc12)c1ccc(N2CCNCC2)cc1NC1CCOCC1", 9.63],
  ["O=C(Nc1n[nH]c2ccc(Cc3cc(F)cc(F)c3)cc12)c1ccc(CN2CCCCC2)cc1NC1CCOCC1", 2.25]
]}

----------
assay-remarks: AUC (infinity) in Sprague-Dawley rat at 10 mg/kg, po administered as single dose by LC-MS/MS analysis
Type: ADME, organism-based
Set-up: dose 10 mg/kg, time infinity, route oral
measurement-conditions: in vivo

{"columns": ["molecule", "AUC(0-inf)"],
 "data": [
  ["CN1CCN(c2ccc(C(=O)Nc3n[nH]c4ccc(Cc5cc(F)cc(F)c5)cc34)c(NC3CCOCC3)c2)CC1 [ENTRECTINIB]", "5.13 µM·h"]
]}

----------
assay-remarks: AUC (infinity) in Harlan nu/nu mouse at 10 mg/kg, iv administered as single dose by LC-MS/MS analysis
Format: ADME, organism-based
Parameters: dose 10 mg/kg, time infinity, route intravenous
measurement-conditions: in vivo
Documented AUC(0-inf) across a set of compounds
reported-metric: AUC(0-inf)

{"columns": ["entry-smiles", "reported-measurement"],
 "data": [
  ["CN1CCN(c2ccc(C(=O)Nc3n[nH]c4ccc(Cc5cc(F)cc(F)c5)cc34)c(N[C@H]3CC[C@H](O)CC3)c2)CC1", "13.1 µM·h"],
  ["O=C(Nc1n[nH]c2ccc(Cc3cc(F)cc(F)c3)cc12)c1ccc(CN2CCCCC2)cc1NC1CCOCC1", "7.97 µM·h"],
  ["O=C(Nc1n[nH]c2ccc(Cc3cc(F)cc(F)c3)cc12)c1ccc(N2CCNCC2)cc1NC1CCOCC1", "42.2 µM·h"],
  ["CN1CCN(c2ccc(C(=O)Nc3n[nH]c4ccc(Cc5cc(F)cc(F)c5)cc34)c(NC3CCOCC3)c2)CC1", "19.6 µM·h"]
]}

----------
assay-remarks: Tmax in Beagle dog at 10 mg/kg, po administered as single dose by LC-MS/MS analysis
Assay type: ADME, organism-based, Canis lupus familiaris
measurement-conditions: in vivo

{"columns": ["compound", "Tmax / h"],
 "data": [
  ["CN1CCN(c2ccc(C(=O)Nc3n[nH]c4ccc(Cc5cc(F)cc(F)c5)cc34)c(NC3CCOCC3)c2)CC1 [ENTRECTINIB]", 2]
]}

----------
Here, each record is paired with measured half-life data.
assay-remarks: Half life in Harlan nu/nu mouse at 10 mg/kg, iv administered as single dose by LC-MS/MS analysis
Format: ADME, organism-based
measurement-conditions: in vivo
reported-metric: half-life (h)

{"columns": ["entry-smiles", "reported-measurement"],
 "data": [
  ["O=C(Nc1n[nH]c2ccc(Cc3cc(F)cc(F)c3)cc12)c1ccc(N2CCNCC2)cc1NC1CCOCC1", 4.76],
  ["CN1CCN(c2ccc(C(=O)Nc3n[nH]c4ccc(Cc5cc(F)cc(F)c5)cc34)c(NC3CCOCC3)c2)CC1", 3.59],
  ["CN(C)CCN(C)C(=O)c1ccc(C(=O)Nc2n[nH]c3ccc(Cc4cc(F)cc(F)c4)cc23)c(NC2CCOCC2)c1", 2.83],
  ["CN1CCN(c2ccc(C(=O)Nc3n[nH]c4ccc(Cc5cc(F)cc(F)c5)cc34)c(N[C@H]3CC[C@H](O)CC3)c2)CC1", 3.01],
  ["CN1CCN(c2ccc(C(=O)Nc3n[nH]c4ccc(Cc5cc(F)cc(F)c5)cc34)c(NCCF)c2)CC1", 5.92],
  ["O=C(Nc1n[nH]c2ccc(Cc3cc(F)cc(F)c3)cc12)c1ccc(CN2CCCCC2)cc1NC1CCOCC1", 1.52],
  ["CN1CCC(Oc2ccc(C(=O)Nc3n[nH]c4ccc(Cc5cc(F)cc(F)c5)cc34)c(NC3CCOCC3)c2)CC1", 4.94]
]}

----------
assay-remarks: Clearance in Harlan nu/nu mouse at 10 mg/kg, iv administered as single dose by LC-MS/MS analysis
Format: ADME, organism-based
measurement-conditions: in vivo

{"columns": ["entry-smiles", "clearance [mL/min/kg]"],
 "data": [
  ["CN1CCN(c2ccc(C(=O)Nc3n[nH]c4ccc(Cc5cc(F)cc(F)c5)cc34)c(NCCF)c2)CC1", 11.7],
  ["CN1CCN(c2ccc(C(=O)Nc3n[nH]c4ccc(Cc5cc(F)cc(F)c5)cc34)c(N[C@H]3CC[C@H](O)CC3)c2)CC1", 21.3],
  ["CN1CCC(Oc2ccc(C(=O)Nc3n[nH]c4ccc(Cc5cc(F)cc(F)c5)cc34)c(NC3CCOCC3)c2)CC1", 8.16]
]}

----------
assay-remarks: Antiproliferative activity against human KARPAS299 cells incubated for 72 hrs by cell titer-glo assay
measurement-conditions: KARPAS-299, 72 h

{"columns": ["entry-smiles", "IC50"],
 "data": [
  ["CN1CCN(c2ccc(C(=O)Nc3n[nH]c4ccc(Cc5cc(F)cc(F)c5)cc34)c(NCCF)c2)CC1", "49 nM"],
  ["CN1CCN(c2ccc(C(=O)Nc3n[nH]c4ccc(Cc5cc(F)ccc5F)cc34)c(NC3CCOCC3)c2)CC1", "49 nM"],
  ["O=C(Nc1n[nH]c2ccc(Cc3cc(F)cc(F)c3)cc12)c1ccc(CN2CCCCC2)cc1NC1CCOCC1", "38 nM"],
  ["CN1CCN(c2ccc(C(=O)Nc3n[nH]c4ccc(Cc5cc(F)cc(F)c5)cc34)c(N)c2)CC1", "214 nM"],
  ["CN1CCN(c2ccc(C(=O)Nc3n[nH]c4ccc(Cc5cc(F)cc(F)c5)cc34)c(Nc3ccccc3)c2)CC1", "991 nM"],
  ["COCCCNc1cc(N2CCN(C)CC2)ccc1C(=O)Nc1n[nH]c2ccc(Cc3cc(F)cc(F)c3)cc12", "194 nM"]
]}

----------
assay-remarks: Clearance in Harlan nu/nu mouse at 10 mg/kg, iv administered as single dose by LC-MS/MS analysis
Assay type: ADME, organism-based
measurement-conditions: in vivo

{"columns": ["entry-smiles", "readout-units", "clearance"],
 "data": [
  ["O=C(Nc1n[nH]c2ccc(Cc3cc(F)cc(F)c3)cc12)c1ccc(N2CCNCC2)cc1NC1CCOCC1", "mL/min/kg", 7.01],
  ["O=C(Nc1n[nH]c2ccc(Cc3cc(F)cc(F)c3)cc12)c1ccc(CN2CCCCC2)cc1NC1CCOCC1", "mL/min/kg", 32.1],
  ["CN1CCN(c2ccc(C(=O)Nc3n[nH]c4ccc(Cc5cc(F)cc(F)c5)cc34)c(NC3CCOCC3)c2)CC1", "mL/min/kg", 13.5],
  ["CN(C)CCN(C)C(=O)c1ccc(C(=O)Nc2n[nH]c3ccc(Cc4cc(F)cc(F)c4)cc23)c(NC2CCOCC2)c1", "mL/min/kg", 38.8]
]}

----------
assay-remarks: Solubility of compound at pH 7 buffer
Type: physicochemical
Entries and their solubility

{"columns": ["entry-smiles", "readout-units", "solubility"],
 "data": [
  ["CN1CCN(c2ccc(C(=O)Nc3n[nH]c4ccc(Cc5cc(F)cc(F)c5)cc34)c(NCCF)c2)CC1", "µM", 16],
  ["CN(C)CCN(C)C(=O)c1ccc(C(=O)Nc2n[nH]c3ccc(Cc4cc(F)cc(F)c4)cc23)c(NC2CCOCC2)c1", "µM", 51],
  ["CN1CCC(Oc2ccc(C(=O)Nc3n[nH]c4ccc(Cc5cc(F)cc(F)c5)cc34)c(NC3CCOCC3)c2)CC1", "µM", 59],
  ["CN1CCN(c2ccc(C(=O)Nc3n[nH]c4ccc(Cc5cc(F)cc(F)c5)cc34)c(N[C@H]3CC[C@H](O)CC3)c2)CC1", "µM", 7]
]}

----------
Consider the following molecules and their measured Papp A→B at 2 h, 2.5 mg/ml readings.
assay-remarks: Apparent permeability from apical to basolateral side in human Caco2 cells at 2.5 mg/ml after 2 hrs by reversed-phase HPLC method
Format: ADME, cell-based
measurement-conditions: Caco-2
reported-metric: Papp A→B at 2 h, 2.5 mg/ml (×10⁻⁶ cm/s)

{"columns": ["entry-smiles", "reported-measurement"],
 "data": [
  ["O=C(Nc1n[nH]c2ccc(Cc3cc(F)cc(F)c3)cc12)c1ccc(CN2CCCCC2)cc1NC1CCOCC1", 1.1],
  ["CN1CCN(c2ccc(C(=O)Nc3n[nH]c4ccc(Cc5cc(F)cc(F)c5)cc34)c(NC3CCOCC3)c2)CC1", 2.4],
  ["CN(C)CCN(C)C(=O)c1ccc(C(=O)Nc2n[nH]c3ccc(Cc4cc(F)cc(F)c4)cc23)c(NC2CCOCC2)c1", 2.7],
  ["CN1CCC(Oc2ccc(C(=O)Nc3n[nH]c4ccc(Cc5cc(F)cc(F)c5)cc34)c(NC3CCOCC3)c2)CC1", 0.3],
  ["CN1CCN(c2ccc(C(=O)Nc3n[nH]c4ccc(Cc5cc(F)cc(F)c5)cc34)c(NCCF)c2)CC1", 2.4],
  ["O=C(Nc1n[nH]c2ccc(Cc3cc(F)cc(F)c3)cc12)c1ccc(N2CCNCC2)cc1NC1CCOCC1", 0.6],
  ["CN1CCC(Nc2cc(N3CCN(C)CC3)ccc2C(=O)Nc2n[nH]c3ccc(Cc4cc(F)cc(F)c4)cc23)CC1", 1.5],
  ["CN1CCN(c2ccc(C(=O)Nc3n[nH]c4ccc(Cc5cc(F)cc(F)c5)cc34)c(N[C@H]3CC[C@H](O)CC3)c2)CC1", 1.8]
]}

Hello, the source for this data is ChEMBL document CHEMBL3804811, in case you need it.
